# METHOD DESCRIPTION: Inhibition of NS5A in HCV genotype 2a infected in human Huh7.5/J6/JFH1/EMCVIRES/hRlucNeo cells assessed as inhibition of replicon levels incubated for 72 hrs by luciferase reporter gene assay
Threshold-based label: IC50 under 30 nM gives class 1, IC50 not under 30 nM gives class 0.

Some solved cases for reference:
{"COMPOUND STRUCTURE": "COC(=O)N[C@H](C(=O)N1[C@H]2CC[C@H](C2)[C@H]1c1ncc(-c2ccc3c(ccc4cc(-c5cnc([C@@H]6[C@@H]7CC[C@@H](C7)N6C(=O)[C@@H](NC(=O)OC)C(C)C)[nH]5)sc43)c2)[nH]1)C(C)C", "ASSIGNED LABEL": "class 1"}
{"COMPOUND STRUCTURE": "COC(=O)N[C@H](C(=O)N1CCC[C@H]1c1ncc(-c2ccc3c(c2)CCc2cc(-c4cnc([C@@H]5CCCN5C(=O)[C@@H](NC(=O)OC)C(C)C)[nH]4)sc2-3)[nH]1)C(C)C", "ASSIGNED LABEL": "class 1"}
{"COMPOUND STRUCTURE": "COC(=O)N[C@H](C(=O)N1CCC[C@H]1c1ncc(-c2ccc3c(c2)OCC2(CC2)COc2cc(-c4cnc([C@@H]5CCCN5C(=O)[C@@H](NC(=O)OC)C(C)C)[nH]4)ccc2-3)[nH]1)C(C)C", "ASSIGNED LABEL": "class 1"}
{"COMPOUND STRUCTURE": "CCc1nc([C@@H]2CCCN2C(=O)[C@@H](NC(=O)OC)C(C)C)[nH]c1-c1ccc2c(c1)OCC(C)(C)COc1cc(-c3[nH]c([C@@H]4CCCN4C(=O)[C@@H](NC(=O)OC)C(C)C)nc3CC)ccc1-2", "ASSIGNED LABEL": "class 0"}
{"COMPOUND STRUCTURE": "COC(=O)N[C@H](C(=O)N1CCC[C@H]1c1nc(Cl)c(-c2ccc3c(c2)OCC(C)(C)COc2cc(-c4[nH]c([C@@H]5CCCN5C(=O)[C@@H](NC(=O)OC)C(C)C)nc4Cl)ccc2-3)[nH]1)C(C)C", "ASSIGNED LABEL": "class 1"}

Then there is this molecule:
Q: Would you kindly verify if IC50 of "COC(=O)N[C@H](C(=O)N1CCC[C@H]1c1ncc(-c2ccc3c(c2)CC2(C3)Cc3ccc(-c4cnc([C@@H]5CCCN5C(=O)[C@@H](NC(=O)OC)C(C)C)[nH]4)cc3C2)[nH]1)C(C)C" is strictly less than 30 nM?
Result: class 1
